System: NALM-6 (B-Lymphoblastic Leukemia)
Experiment Notes: combination Emax (second highest fraction inhibited in the dose matrix, 72 h); higher = more inhibition; extreme values may be limits of the assay
Reported Metric: combination Emax
Form rule: numeric answer, no unit written next to it.

Lookup: Recorded combination Emax for N#Cc1cnc(Nc2cc(NC[C@H]3CNCCO3)c(C(F)(F)F)cn2)cn1 [SRA737] + C=CCn1c(=O)c2cnc(Nc3ccc(N4CCN(C)CC4)cc3)nc2n1-c1cccc(C(C)(C)O)n1 [AZD1775] (first compound max 10 µM, partner max 1 µM) with NALM-6 (B-Lymphoblastic Leukemia), please?
Found: 0.969

Lookup: Now the compound CC1(C)CCC(CN2CCN(c3ccc(C(=O)NS(=O)(=O)c4ccc(NCC5CCOCC5)c([N+](=O)[O-])c4)c(Oc4cnc5[nH]ccc5c4)c3)CC2)=C(c2ccc(Cl)cc2)C1 [Venetoclax] + COc1cc(Nc2ncc3c(n2)-c2ccc(Cl)cc2C(c2c(F)cccc2OC)=NC3)ccc1C(=O)O [Alisertib] (first compound max 1 µM, 7x7, partner max 10 µM)
Found: 0.977
